Recorded melting point for the following compounds

item-smiles	melting point
Cn1c(Cc2ccc(Cl)c(Oc3cc(Cl)cc(C#N)c3)c2F)nn(CO)c1=O	145.8 to 149.5 °C
Cc1ccc(Cc2nn(COC(=O)CCC(=O)O)c(=O)n2C)c(F)c1Oc1cc(C#N)cc(C(F)F)c1	139.2 to 140.5 °C
Cn1c(Cc2ccc(Cl)c(Oc3cc(C#N)cc(C#N)c3)c2F)nn(COC(=O)CCC(=O)O)c1=O	141.6 to 143.3 °C
Cn1c(Cc2ccc(Cl)c(Oc3cc(Cl)cc(C#N)c3)c2F)nn(COC(=O)CCC(=O)O)c1=O	136.6 to 141.9 °C
Cn1c(Cc2ccc(Cl)c(Oc3cc(C#N)cc(C(F)F)c3)c2F)nn(COC(=O)CCC(=O)O)c1=O	150.5 to 151.1 °C
CCc1ccc(Cc2nn(COC(=O)CCC(=O)O)c(=O)n2C)c(F)c1Oc1cc(C#N)cc(C(F)F)c1	152.2 to 153.5 °C

Task item: Assign melting point to the following record: "Cn1c(Cc2ccc(Br)c(Oc3cc(C#N)cc(C(F)F)c3)c2F)nn(COC(=O)CCC(=O)O)c1=O"
Reply: 156.7 to 158 °C

Task item: Give recorded melting point. "Cn1c(Cc2ccc(Cl)c(Oc3cc(C#N)cc(C#N)c3)c2F)nn(CO)c1=O"
Reply: 158.9 to 162.2 °C
